# Test system: RAW-Dual (murine macrophage reporter line)
# TEST PROTOCOL: IRF reporter (Lucia luciferase) activity fold change vs agonist alone; higher = enhanced IRF activity
# EXPERIMENTAL CONDITIONS: modulator concentration 10 µM; agonist: MPLA […]
ASSAY READOUT: IRF reporter
Answer with a number only.

Some molecules with recorded IRF reporter:
* CCOc1cc2ncc(C#N)c(Nc3ccc(F)c(Cl)c3)c2cc1NC(=O)/C=C/CN(C)C | 0.22
* COc1ccc(S(=O)(=O)NCc2cccnc2-c2cnn(C)c2)cc1Cl | 1.04
* CCOc1ccc2c(c1)C(C)=CC(C)(C)N2 [Prestw-765] | 0.997
* NC(=O)CSc1nc(O)cc(=O)n1-c1ccccc1F | 1.23

molecule C=CC(=O)N1CCC(Oc2cc3c(Nc4ccc(Cl)c(Cl)c4F)ncnc3cc2OC)CC1 , IRF reporter observed: 1.49

molecule N=C1NC(=O)C(=Cc2ccc(-c3ccc(F)cc3)o2)S1 , IRF reporter observed: 0.798

molecule NC(=O)c1c(NC(=O)CN2C(=O)C(=Cc3ccc(Cl)cc3Cl)SC2=S)sc2c1CCCC2 , IRF reporter observed: 1.03

molecule CC(C)(C)C(O)/C=C/c1ccc2c(c1)OCO2 (stereo not given) , IRF reporter observed: 1.01

molecule O.S=c1nc[nH]c2nc[nH]c12 , IRF reporter observed: 1.36

molecule CCOC(=O)C1=C[C@]2(CC)CCCN3CCc4c(n1c1ccccc41)[C@@H]32 , IRF reporter observed: 1.4

molecule COC(=O)C1=C(C#N)NC(C)=C(C(=O)OC(C)C)C1c1cccc([N+](=O)[O-])c1 (stereo not given) , IRF reporter observed: 1.19

molecule c1ccc(CCn2c3ccccc3c3nnc(SCCN4CCOCC4)nc32)cc1 , IRF reporter observed: 1.33

----------
Quick list: IRF reporter per entry.
# Test system: RAW-Dual (murine macrophage reporter line)
# TEST PROTOCOL: IRF reporter (Lucia luciferase) activity fold change vs agonist alone; higher = enhanced IRF activity
# EXPERIMENTAL CONDITIONS: modulator concentration 10 µM; agonist: 3'3'-cGAMP 10 ug/mL
Answer with a number only.

Some compounds with recorded IRF reporter:
- CC(C)NCC(O)COc1cccc2ccccc12 (stereo not drawn): 0.896
- Cc1ccc(NC(=O)Nc2c(C)nc(N3CCN(C)CC3)nc2C)cc1F: 0.925
- CCc1cccc2c3c([nH]c12)C(CC)(CC(=O)O)OCC3 (stereo not drawn): 0.926
- COc1cccc(C=Nc2cccc([N+](=O)[O-])c2C)c1O: 0.903

compound COc1c2occc2cc2ccc(=O)oc12 , IRF reporter observed: 0.91

compound c1ccc(OCCOc2ccc(Nc3ccnc4cc5ccccc5cc34)cc2)cc1 , IRF reporter observed: 0.896

compound N#Cc1c(N=Cc2ccc(Cl)cc2)sc2c1CCCC2 , IRF reporter observed: 0.915

compound COc1ccc(-c2[nH]c(-c3ccccc3)nc2SCC(=O)NC2CCCC2)cc1 , IRF reporter observed: 0.892

----------
Quick list: NF-kB reporter per entry.
# Test system: RAW-Dual (murine macrophage reporter line)
# TEST PROTOCOL: NF-kB reporter (SEAP) activity fold change vs agonist alone; higher = enhanced NF-kB activity
# EXPERIMENTAL CONDITIONS: modulator concentration 10 µM; agonist: LPS 0.1 ug/mL
Answer with a number only.

compound O=c1[nH][nH]c(=O)c2c(N=Cc3cc4c(cc3[N+](=O)[O-])OCO4)cccc12 , NF-kB reporter observed: 0.823

compound Cl.NCc1ccc(S(N)(=O)=O)cc1 , NF-kB reporter observed: 0.965

compound CCCCc1c(C)nc(NN=C(C)c2cccc([N+](=O)[O-])c2)nc1O , NF-kB reporter observed: 0.941

Numbers sourced from the supplement of paper PMC10646978.
